Target: mouse kappa opioid receptor (mKOR) (Mus musculus)
Construct: a mouse thymoma cell line that expresses only the kappa-opioid receptor and no other opioid receptor subtype; host or cells: R1.G1 mouse thymoma cells
Assay: Inhibition of forskolin-stimulated cAMP production in R1.G1 cells (TR-FRET cAMP immunoassay)
Type: cell-based
Details: R1.G1 cells
Square brackets hold non-standard residues; d marks the D form. Peptide text beside a SMILES is read from it. dOrn = NCCC[C@@H](N)C(=O)O; Inp = O=C(O)C1CCNCC1
Some compounds, each annotated with its measured mKOR Efficacy(%).
Number only, in %; omit the unit.

These recorded examples may help you get a feel for the data.
compound | units.symbol | mKOR Efficacy(%)
CC(C)C[C@@H](NC(=O)[C@@H](Cc1ccccc1)NC(=O)[C@H](N)Cc1ccccc1)C(=O)N[C@H](CCCN)C(=O)N1CCC(N2CCC[C@H]2C(=O)O)CC1 | % | 99
CC(C)C[C@@H](NC(=O)[C@@H](Cc1ccccc1)NC(=O)[C@H](N)Cc1ccccc1)C(=O)N[C@H](CCCCN)C(=O)NCc1ccc(C(F)(F)F)nc1 | % | 85
CC(C)C[C@@H](NC(=O)[C@@H](Cc1ccccc1)NC(=O)[C@H](N)Cc1ccccc1)C(=O)N[C@H](CCCCN)C(=O)N1CCN(S(=O)(=O)N(C)C)CC1 | % | 86
CC(C)C[C@@H](NC(=O)[C@@H](Cc1ccccc1)NC(=O)[C@H](N)Cc1ccccc1)C(=O)N[C@H](CCCNC(C)C)C(=O)N1CCCNCC1 | % | 96
CC(C)C[C@@H](NC(=O)[C@@H](Cc1ccccc1)NC(=O)[C@H](N)Cc1ccccc1)C(=O)N[C@H](CCCCN)C(=O)N1CCN(S(=O)(=O)c2ccccc2)CC1 | % | 87
CC(C)C[C@@H](NC(=O)[C@@H](Cc1ccccc1)NC(=O)[C@H](N)Cc1ccccc1)C(=O)N[C@H](CCCCN)C(=O)N1CCN(S(C)(=O)=O)CC1 | % | 82

query: Query mKOR Efficacy(%) on mouse kappa opioid receptor (mKOR) (Mus musculus) for CC(C)C[C@@H](NC(=O)[C@@H](Cc1ccccc1)NC(=O)[C@H](N)Cc1ccccc1)C(=O)N[C@H](CCCN)C(=O)N1CCCNCC1
result: 100

query: Next entry: CC(C)C[C@@H](NC(=O)[C@@H](Cc1ccccc1)NC(=O)[C@H](N)Cc1ccccc1)C(=O)N[C@H](CCCN)C(=O)N1CCC(C(=O)O)CC1 [Compound 9] (H-[dF][dF][dL][dOrn][Inp]-OH; N-terminus assumed)
result: 92

query: For CNCCC[C@@H](NC(=O)[C@@H](CC(C)C)NC(=O)[C@@H](Cc1ccccc1)NC(=O)[C@H](N)Cc1ccccc1)C(=O)N1CCCN(C(=N)N)CC1 then?
result: 97

query: What about this compound? CC(C)C[C@@H](NC(=O)[C@@H](Cc1ccccc1)NC(=O)[C@H](N)Cc1ccccc1)C(=O)N[C@H](CCCN)C(=O)N1CCC(N2CCC[C@H]2C(N)=O)CC1
result: 96

query: # iterate: CC(C)C[C@@H](NC(=O)[C@@H](Cc1ccccc1)NC(=O)[C@H](N)Cc1ccccc1)C(=O)N[C@H](CCCN)C(=O)NC1CCN(CC(N)=O)CC1
result: 93

====

Molecular target: mouse kappa opioid receptor (mKOR) (Mus musculus, UniProt P33534)
Construct: a mouse thymoma cell line that expresses only the kappa-opioid receptor and no other opioid receptor subtype; host or cells: R1.G1 mouse thymoma cells
Sequence (P33534 whole entry): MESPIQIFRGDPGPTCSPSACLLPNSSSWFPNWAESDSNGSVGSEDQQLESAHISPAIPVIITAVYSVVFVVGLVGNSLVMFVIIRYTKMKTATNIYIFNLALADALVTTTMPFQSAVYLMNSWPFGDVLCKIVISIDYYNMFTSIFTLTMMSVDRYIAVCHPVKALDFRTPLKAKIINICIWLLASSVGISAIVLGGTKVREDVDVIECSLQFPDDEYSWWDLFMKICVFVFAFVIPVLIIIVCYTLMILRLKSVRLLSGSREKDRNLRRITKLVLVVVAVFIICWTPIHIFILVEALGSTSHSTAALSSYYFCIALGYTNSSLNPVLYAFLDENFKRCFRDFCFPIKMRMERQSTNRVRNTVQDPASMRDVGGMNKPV
Experiment: Inhibition of forskolin-stimulated cAMP production in R1.G1 cells (TR-FRET cAMP immunoassay)
Format: cell-based
Settings: read-out: mKOR Efficacy(%), R1.G1 cells
Bridge positions count the residues as written; N and C are the ends. Square brackets hold non-standard residues; d marks the D form. Side chains are listed from the residue outwards. Peptide text beside a SMILES is read from it. I, II: the chains in the order shown. dAgb = N=C(N)NCC[C@@H](N)C(=O)O; dOrn = NCCC[C@@H](N)C(=O)O; Api = NC1(C(=O)O)CCNCC1
// reported Emax for each item listed
Report the figure in % without appending any unit label.

molecule | system | assay.readout | value
CC(C)C[C@@H](NC(=O)[C@@H](Cc1ccccc1)NC(=O)[C@H](N)Cc1ccccc1)C(=O)N[C@@H]1CCCCNC(=O)CNC(=O)[C@H](NC(=O)[C@@H](CC(C)C)NC(=O)[C@@H](Cc2ccccc2)NC(=O)[C@H](N)Cc2ccccc2)CCCCNC(=O)CNC1=O [Compound 52] (I: H-[dF][dF][dL][dK]G / II: H-[dF][dF][dL][dK]G; amide I:4-II:C, I:C-II:4 (inferred); N-terminus assumed) | mouse kappa opioid receptor (mKOR) (Mus musculus, UniProt P33534) | Emax | 76

query: Query (molecule): CC(C)C[C@@H](NC(=O)[C@@H](Cc1ccccc1)NC(=O)[C@H](N)Cc1ccccc1)C(=O)N[C@H](CCNC(=N)N)C(=O)NC1(C(=O)O)CCN(C(=O)[C@@H](CCNC(=N)N)NC(=O)[C@@H](CC(C)C)NC(=O)[C@@H](Cc2ccccc2)NC(=O)[C@H](N)Cc2ccccc2)CC1 [Compound 51] (H-[dF][dF][dL][dAgb][Api]([dAgb-dL-dF-dF])-OH) ; field requested: Emax
result: 60

query: Entry CC(C)C[C@@H](NC(=O)[C@@H](Cc1ccccc1)NC(=O)[C@H](N)Cc1ccccc1)C(=O)N[C@H](CCCN)C(=O)NCCCC[C@@H](NC(=O)[C@@H](CCCN)NC(=O)[C@@H](CC(C)C)NC(=O)[C@@H](Cc1ccccc1)NC(=O)[C@H](N)Cc1ccccc1)C(=O)O [Compound 48] (H-[dF][dF][dL][dOrn][dK]([dOrn-dL-dF-dF])-OH) please
result: 85

====

Molecular target: human kappa opioid receptor (hKOR) (Homo sapiens)
Construct: expressed in transfected cells; host or cells: HEK-293 cells (ATCC), transient transfection with pcDNA3-hOPRK1
Sequence (P41145 whole entry): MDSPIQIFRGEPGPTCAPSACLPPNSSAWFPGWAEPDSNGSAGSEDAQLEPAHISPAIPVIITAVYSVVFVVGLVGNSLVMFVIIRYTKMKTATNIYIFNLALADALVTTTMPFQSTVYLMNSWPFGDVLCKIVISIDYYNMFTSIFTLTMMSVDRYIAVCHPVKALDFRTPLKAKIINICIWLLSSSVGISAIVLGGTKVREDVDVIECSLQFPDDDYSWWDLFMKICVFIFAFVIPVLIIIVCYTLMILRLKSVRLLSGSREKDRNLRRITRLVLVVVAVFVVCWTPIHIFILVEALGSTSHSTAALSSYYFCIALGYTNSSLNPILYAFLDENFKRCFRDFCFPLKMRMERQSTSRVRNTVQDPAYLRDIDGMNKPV
Assay: NFAT-luciferase reporter assay in HEK-293 cells transfected with human kappa opioid receptor and chimeric G-protein
Assay type: cell-based
Conditions: transfected HEK-293 cells, luciferase reporter; read-out: hKOR EC50
Listed compounds paired with reported pEC50
Notebook: values listed as pEC50 are -log10 of the concentration (mol/L).

For orientation, consider the following solved cases.
compound.structure.string | pEC50
CC(C)C[C@@H](NC(=O)[C@@H](Cc1ccccc1)NC(=O)[C@H](N)Cc1ccccc1)C(=O)N[C@H](CCCN)C(=O)N1CCC(CC(=O)O)CC1 | 9.89
CC(C)C[C@@H](NC(=O)[C@@H](Cc1ccccc1)NC(=O)[C@H](N)Cc1ccccc1)C(=O)N[C@H](CCCN)C(=O)N1CCC(CCCC(=O)O)CC1 | 9.52

Read the next record carefully.
query: Returns the measured pEC50 for the input compound. Input: CC(C)C[C@@H](NC(=O)[C@@H](Cc1ccccc1)NC(=O)[C@H](N)Cc1ccccc1)C(=O)N[C@H](CCCN)C(=O)NCCCC[C@@H](NC(=O)[C@H](N)CCCN)C(=O)O
result: 9.55

====

Biological target: mouse kappa opioid receptor (mKOR) (Mus musculus, UniProt P33534)
Construct: a mouse thymoma cell line that expresses only the kappa-opioid receptor and no other opioid receptor subtype; host or cells: R1.G1 mouse thymoma cells
Assay: Inhibition of forskolin-stimulated cAMP production in R1.G1 cells (TR-FRET cAMP immunoassay)
Type: cell-based
Details: R1.G1 cells
The following compounds are shown together with reported mKOR Efficacy(%) values.
Reply with just the number (in %).

query: # lookup: mKOR Efficacy(%) of CC(C)C[C@@H](NC(=O)[C@@H](Cc1ccccc1)NC(=O)[C@H](N)Cc1ccccc1)C(=O)N[C@H](CCCN)C(=O)N1CCOC(C(=O)O)C1 (some centres unmarked)
result: 100

query: Quick one: CC(C)C[C@@H](NC(=O)[C@@H](Cc1ccccc1)NC(=O)[C@H](N)Cc1ccccc1)C(=O)N[C@H](CCCN)C(=O)NCCN1CCN(CC(N)=O)CC1
result: 96

query: For CC(C)C[C@@H](NC(=O)[C@@H](Cc1ccccc1)NC(=O)[C@H](N)Cc1ccccc1)C(=O)N[C@H](CCCCN)C(=O)N1CCN(c2nccs2)CC1 then?
result: 85

query: Quick one: CC(C)C[C@@H](NC(=O)[C@@H](Cc1ccccc1)NC(=O)[C@H](N)Cc1ccccc1)C(=O)N[C@H](CCCN)C(=O)N1CCCN(C2=NCCN2)CC1
result: 99

query: Likewise for CC(C)C[C@@H](NC(=O)[C@@H](Cc1ccccc1)NC(=O)[C@H](N)Cc1ccccc1)C(=O)N[C@H](CCCCN)C(=O)N1CCN(C(=O)c2ccccc2)CC1 ?
result: 92

query: Try the compound CC(C)C[C@@H](NC(=O)[C@@H](Cc1ccccc1)NC(=O)[C@H](N)Cc1ccccc1)C(=O)N[C@H](CCCN)C(=O)N[C@@H]1CN[C@H](C(=O)O)C1
result: 96
